- System: 5-hydroxytryptamine receptor 2C (pig)
- EXPERIMENT SUMMARY: NVS_GPCR_p5HT2C: NovaScreen (NVS) G Protein-Coupled Receptor Assay for pig Serotonin, 5-Hydroxytryptamine Receptor 2C (5HT2C) (AID 2283288)
- Protocol: NVS_GPCR_p5HT2C is a biochemical, single-readout assay that uses extracted gene-proteins from Pig choroid plexus membranes in a tissue-based cell-free assay. Measurements were taken 1 hour after chemical dosing in a 48-well plate.NVS_GPCR_p5HT2C is one of one assay component(s) measured or calculated from the NVS_GPCR_p5HT2C assay. […] This assay endpoint, NVS_GPCR_p5HT2C, was analyzed in the positive analysis fitting direction relative to DMSO as the negative control and baseline of activity. […]
Inconclusive results are not listed. Activity calls are given as the source filed them. Rule for the calls: active = hit-call score of the fitted dose curve at least 0.9, where 1 is the maximum; inconclusive = response in the unintended direction; inactive = score below 0.9.
Respond with a class label; see active, inactive

>  <STRUCTURE SMILES>
CC/C(=C(/CC)c1ccc(O)cc1)c1ccc(O)cc1

>  <LABEL VALUE>
active

$$$$

# input Outcome logged for CN(C[C@@H](CC[N+]12CCC(C3CCCCC3)(CC1)CC2)c1ccc(Cl)c(Cl)c1)C(=O)c1cc(C(F)(F)F)cc(C(F)(F)F)c1 in this assay:
# output active

# input Outcome logged for CN(C)C(=O)C1(N2CCCCC2)CCN(CC[C@@]2(c3ccc(Cl)c(Cl)c3)CN(C(=O)c3ccccc3)CCO2)CC1 in this assay:
# output active

# input Outcome logged for NCc1cccc(C2CCN(C(=O)c3ccc(C#Cc4ccccc4F)o3)CC2)c1 in this assay:
# output active

# input Outcome logged for Oc1ccc2ccccc2c1 in this assay:
# output active

# input Outcome logged for Cc1occc1C(=O)Nc1ccc(C(=O)N2CCC(F)(F)/C(=C\C(=O)N3CCC(N4CCCCC4)CC3)c3ccccc32)cc1 in this assay:
# output inactive

# input Outcome logged for Cc1cc2c(cc1C(F)(F)F)N(C(=O)Nc1ccc(Oc3cccnc3C)nc1)CC2 in this assay:
# output active

# input Outcome logged for CC(C)(C)c1cc(/C=C2\SC(N)=NC2=O)cc(C(C)(C)C)c1O in this assay:
# output inactive
